src = ChEMBL document CHEMBL3988442

Known Percent Effect of a selection of compounds
measurement target: Protein translocase subunit SecA (Escherichia coli (strain K12)) (UniProt P10408)
Sequence (P10408 whole entry): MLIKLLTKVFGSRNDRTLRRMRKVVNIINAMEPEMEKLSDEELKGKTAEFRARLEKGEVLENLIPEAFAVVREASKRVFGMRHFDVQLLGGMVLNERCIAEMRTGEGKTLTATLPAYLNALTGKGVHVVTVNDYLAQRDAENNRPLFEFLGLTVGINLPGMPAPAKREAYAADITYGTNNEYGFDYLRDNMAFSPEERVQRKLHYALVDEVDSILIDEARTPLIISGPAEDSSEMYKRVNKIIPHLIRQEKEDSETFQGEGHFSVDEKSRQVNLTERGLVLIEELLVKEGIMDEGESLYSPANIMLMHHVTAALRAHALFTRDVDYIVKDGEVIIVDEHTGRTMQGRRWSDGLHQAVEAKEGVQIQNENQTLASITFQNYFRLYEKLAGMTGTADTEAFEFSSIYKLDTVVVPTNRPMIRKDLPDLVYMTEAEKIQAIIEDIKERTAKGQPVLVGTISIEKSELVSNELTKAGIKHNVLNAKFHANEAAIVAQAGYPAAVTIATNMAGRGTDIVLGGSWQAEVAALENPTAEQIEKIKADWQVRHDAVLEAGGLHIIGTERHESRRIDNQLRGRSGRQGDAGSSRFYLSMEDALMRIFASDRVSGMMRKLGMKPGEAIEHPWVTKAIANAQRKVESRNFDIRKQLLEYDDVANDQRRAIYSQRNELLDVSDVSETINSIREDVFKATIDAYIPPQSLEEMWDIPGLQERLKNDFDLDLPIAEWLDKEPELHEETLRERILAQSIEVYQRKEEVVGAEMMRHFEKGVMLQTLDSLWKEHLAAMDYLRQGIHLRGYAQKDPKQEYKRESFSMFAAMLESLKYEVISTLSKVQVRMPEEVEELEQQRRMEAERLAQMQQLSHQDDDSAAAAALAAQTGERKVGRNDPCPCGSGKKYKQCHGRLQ
assay overview: Assay to Identify E. coli SecA ATPase Inhibitors
Type: functional
Set-up: scale not given: direction of the effect not stated beside the values
run parameters: 30 µM
Results with a measured potency or affinity are listed apart.
Quick note: give the figure in %, leave out the unit.

- compound: "CSc1ncccc1C(=O)N1C[C@H]2CC[C@@H]1CN(c1ncccn1)C2"
  Percent Effect (%): -4.71
- compound: "CC(O)CN1CCN(C(=O)c2ccn(-c3cccc(Cl)c3)n2)CC1 (configuration not stated)"
  Percent Effect (%): -5.56
- compound: "CC(C)(C)C(=O)N1CCC2(COCc3cnc(N4CCOCC4)nc32)C1 (configuration not stated)"
  Percent Effect (%): -4.89
- compound: "CCn1nc(C(C)C)cc1C(=O)NCCCOC"
  Percent Effect (%): -2.71
- compound: "CCn1cnnc1C1CCN(C(=O)c2ccc(C(=O)OC)s2)CC1"
  Percent Effect (%): -6.84

**Query** Reported Percent Effect for Cc1nnc(N2C[C@H](C(=O)NCC3CC3)[C@@H]3CCO[C@@H]3C2)s1 : what is it?
**Result** 0.351

**Query** Repeat for the following compound: CN(Cc1ccco1)C(=O)CN1CCCC(Cn2cncn2)C1 (configuration not stated)
**Result** -2.53

**Query** Same thing, different compound: CCN1CCN(S(=O)(=O)c2cc(Cl)c(Cl)cc2C)CC1
**Result** -2.56

**Query** Cc1nn(CC(C)C)c(N(C)C)c1CNCc1cccnc1N(C)C ?
**Result** -4.49

**Query** And the next one, CC(NCc1ccncc1)c1cc(F)ccc1N1CCN(C)CC1 (configuration not stated) ?
**Result** -1.22

**Query** Now try CC(=O)N1CCC(c2nccnc2Oc2ccccc2)CC1 .
**Result** -6.13

**Query** Okay, and CCc1nc(C2CCCN2Cc2nccn2Cc2ccccc2)no1 (configuration not stated) ?
**Result** -0.608

---

measurement target: Tyrosyl-tRNA synthetase, putative (Trypanosoma cruzi (strain CL Brener)) (UniProt Q4DSP6)
Sequence (whole entry): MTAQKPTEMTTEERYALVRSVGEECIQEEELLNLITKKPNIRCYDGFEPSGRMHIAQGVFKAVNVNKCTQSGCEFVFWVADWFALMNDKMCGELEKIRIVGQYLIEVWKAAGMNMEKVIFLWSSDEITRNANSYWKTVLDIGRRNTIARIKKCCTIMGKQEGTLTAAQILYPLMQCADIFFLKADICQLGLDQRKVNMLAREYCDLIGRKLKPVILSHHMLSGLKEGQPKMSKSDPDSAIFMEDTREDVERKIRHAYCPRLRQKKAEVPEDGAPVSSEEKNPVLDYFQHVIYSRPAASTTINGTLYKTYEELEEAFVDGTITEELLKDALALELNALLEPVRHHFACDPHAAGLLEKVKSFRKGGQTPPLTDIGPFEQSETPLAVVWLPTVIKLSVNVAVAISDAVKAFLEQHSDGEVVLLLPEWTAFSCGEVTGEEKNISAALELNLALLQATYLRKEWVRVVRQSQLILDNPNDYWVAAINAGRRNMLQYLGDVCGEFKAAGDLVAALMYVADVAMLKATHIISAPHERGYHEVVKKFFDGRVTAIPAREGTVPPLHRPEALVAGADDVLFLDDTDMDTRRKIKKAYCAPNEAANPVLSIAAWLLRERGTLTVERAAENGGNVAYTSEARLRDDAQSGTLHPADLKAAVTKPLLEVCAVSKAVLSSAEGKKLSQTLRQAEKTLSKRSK
assay overview: Trypanosoma cruzi tyrosyl tRNA synthetase (TcYRS) _High Tyrosine SOP; also: in the data most compounds retested in dose-response had high values
Type: functional
Design: scale not given: direction of the effect not stated beside the values
run parameters: 30 µM
quantity name: Percent Effect (%)
Please give a number only; it is taken to be in %.

# count of solved cases: 4
- compound: "CC(C)(C)c1n[nH]c(C2CN(C(=O)c3cc(C4CC4)on3)CCO2)n1 (stereo not given)"
  measurement target: "Tyrosyl-tRNA synthetase, putative (Trypanosoma cruzi (strain CL Brener)) (UniProt Q4DSP6)"
  Percent Effect, %: 1.06
- compound: "CC1CN(C(=O)c2ccn(-c3cccc(Cl)c3)n2)CCO1 (stereo not given)"
  measurement target: "Tyrosyl-tRNA synthetase, putative (Trypanosoma cruzi (strain CL Brener)) (UniProt Q4DSP6)"
  Percent Effect, %: 8.74
- compound: "COc1cc(C(=O)N(C2CC2)C2CC(=O)NC2=O)ccc1C (stereo not given)"
  measurement target: "Tyrosyl-tRNA synthetase, putative (Trypanosoma cruzi (strain CL Brener)) (UniProt Q4DSP6)"
  Percent Effect, %: 4.43
- compound: "Cc1cc(C(=O)N2CCCC2c2nnc3n2CCCCC3)no1 (stereo not given)"
  measurement target: "Tyrosyl-tRNA synthetase, putative (Trypanosoma cruzi (strain CL Brener)) (UniProt Q4DSP6)"
  Percent Effect, %: 6.32

// moving on: another record for Percent Effect
**Query** Which Percent Effect is listed for NC(=O)c1ccc(CN2CCCC(O)C2)cc1 (stereo not given) ?
**Result** 5.94

---

measurement target: Tyrosyl-tRNA synthetase, putative (Trypanosoma cruzi (strain CL Brener)) (UniProt Q4DSP6)
Sequence (whole entry): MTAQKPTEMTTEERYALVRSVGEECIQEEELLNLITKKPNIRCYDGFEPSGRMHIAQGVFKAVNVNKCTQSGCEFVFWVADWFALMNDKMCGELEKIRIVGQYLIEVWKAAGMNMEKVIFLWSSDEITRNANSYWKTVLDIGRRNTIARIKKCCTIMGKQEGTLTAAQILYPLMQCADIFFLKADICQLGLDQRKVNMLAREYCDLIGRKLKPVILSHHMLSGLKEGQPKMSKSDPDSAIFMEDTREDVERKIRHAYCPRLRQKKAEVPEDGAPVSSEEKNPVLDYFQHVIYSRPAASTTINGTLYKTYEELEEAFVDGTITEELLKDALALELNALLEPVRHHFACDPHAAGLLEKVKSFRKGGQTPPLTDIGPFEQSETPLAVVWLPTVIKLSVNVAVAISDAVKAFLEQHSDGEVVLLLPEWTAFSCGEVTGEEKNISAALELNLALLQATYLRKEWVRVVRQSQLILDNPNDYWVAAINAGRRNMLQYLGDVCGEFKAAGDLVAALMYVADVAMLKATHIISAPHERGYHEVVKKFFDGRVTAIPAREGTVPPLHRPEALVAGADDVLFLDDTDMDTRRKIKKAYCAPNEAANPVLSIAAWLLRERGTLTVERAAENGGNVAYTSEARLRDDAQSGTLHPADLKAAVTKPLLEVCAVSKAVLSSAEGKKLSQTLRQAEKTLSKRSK
assay overview: Trypanosoma cruzi tyrosyl tRNA synthetase (TcYRS) _High Tyrosine SOP; also: in the data most compounds retested in dose-response had high values
Assay type: functional
Parameters: scale not given: direction of the effect not stated beside the values
run parameters: 30 µM
quantity name: Percent Effect (%)
The reply should be a number in %, with the unit left off.

- compound: "N#Cc1ccc(NCCNc2ccc(C(F)(F)F)cn2)nc1"
  Percent Effect / %: 8.33
- compound: "Cn1ccc(CN2CCC(COC3CCCC3)CC2)cc1=O"
  Percent Effect / %: -10.4
- compound: "O=C(CCc1nccs1)N1CCN(c2ccc(Br)cn2)CC1"
  Percent Effect / %: 2.86

**Query** Would you mind telling me what Percent Effect value was observed for CO[C@H]1CN(C(=O)c2ccc3oc(C)cc3c2)CC[C@@]12CCCO2 ?
**Result** 0

**Query** Also need Cn1cc(CN2CC[C@@H]3[C@@H](CCC(=O)N3CCc3c[nH]cn3)C2)cn1 , thanks.
**Result** 1.04

**Query** Do the same for Cc1ccc(-c2ncc(C(=O)NCCS(N)(=O)=O)s2)c(C)c1 please
**Result** 0.493

**Query** Same thing, different compound: CO[C@H]1CN(Cc2cccc(C#N)c2)[C@@H]2COC[C@H]12
**Result** 5.21

**Query** Now the same for CC(C)c1nn(CC(=O)N2CCCCC2)c(=O)c2c1cnn2C(C)(C)C
**Result** 2.15

**Query** What about this compound? CN(C)CC(=O)N1CCC2(CC1)CN(c1ccsc1)C(=O)CO2
**Result** 0

**Query** Please answer likewise for Cn1ccnc1CN1CCCCC1Cn1cccn1 (stereo unspecified)
**Result** 6.25

**Query** Moving on to Cc1noc(C2CCCN(C(=O)c3ccc(Br)o3)C2)n1 (stereo unspecified)
**Result** 3.81

**Query** Okay, and COc1ncccc1CNC(=O)NC1CCOc2ccccc21 (stereo unspecified) ?
**Result** 0

**Query** Record: CCO[C@@H]1CC[C@H]2[C@H]1OCCN2C(=O)C1CCOCC1
**Result** 10.9

**Query** Thanks! And O=S1(=O)CCN(Cc2cccnc2)[C@H]2CCN(c3ncccn3)CC[C@H]21 ?
**Result** 3.96

**Query** Then what about the compound CC(=O)Nc1ccc(S(=O)(=O)NC(=O)CCC2CCCO2)cc1 (stereo unspecified) ?
**Result** 1.48

**Query** Check CN(CCc1ccccc1)Cc1cc(C(=O)N2CCN(C)C(=O)C2)no1 too.
**Result** 7.29

**Query** Input OC1CCN(Cc2cc3c(cc2Br)OCCO3)CC1
**Result** 1.05

**Query** Do the same for COc1cc2cc(C(=O)O)n(C)c2c(OC)c1OC please
**Result** -3.17

**Query** Moving on to the next compound: Cc1nc(C2CCCN2CC(=O)NCCOc2ccccc2)no1 (stereo unspecified)
**Result** 0.49

**Query** Same read-out for Cc1cnc(N2CCCC3(CCN(Cc4csc(C)n4)C3=O)C2)nc1 (stereo unspecified) ?
**Result** 4.17

**Query** Would you mind doing CCn1ncc(CN2CCc3c(nc(-c4cccnc4)[nH]c3=O)C2)c1C as well?
**Result** 5.32
